Provenance of the data: patent EP2951180B1

- study target: HDM2 (Homo sapiens)
- Construct: Thioredoxin (N); made in house; host or cells: E. coli strain BL21(DE3)Rosetta
- Sequence (Q00987 17-125): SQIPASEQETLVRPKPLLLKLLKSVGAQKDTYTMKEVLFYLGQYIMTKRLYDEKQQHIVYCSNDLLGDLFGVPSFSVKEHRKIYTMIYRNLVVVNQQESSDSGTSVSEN
- test details: HDM2 FRET assay (inhibition of binding of FITC labeled p53-pocket peptide to HDM2)
- settings: Table 11; read-out: FRET IC50
IC50 reference
recorded metric: IC50 (nM)

molecule="Cc1ccc(C2CCCCN2c2nc3nc(-c4noc(=O)[nH]4)nc(N[C@H](C)C4CCC4)c3n2C[C@H]2CC[C@H](C)CC2)o1 (stereo partly drawn) [Example 11.78]" value_reported=37.1
molecule="CC(C)C1CCCCN1c1nc2nc(C(=O)O)nc(N[C@H](C)C3CCC3)c2n1C[C@H]1CC[C@H](C)CC1 (stereo partly drawn) [Example 11.54]" value_reported=3.31
molecule="C[C@@H](Nc1nc(-c2noc(=O)[nH]2)nc2nc(N3CCCC3C(C)(C)C)n(C[C@H]3CC[C@H](C)CC3)c12)C1CCC1 (stereo partly drawn) [Example 11.36]" value_reported=3.93
molecule="C[C@@H](Nc1nc(-c2noc(=O)[nH]2)nc2nc(N(C)Cc3ccncn3)n(C[C@H]3CC[C@H](C)CC3)c12)C1CCC1 [Example 11.70]" value_reported=22.8
molecule="C[C@@H](Nc1nc(-c2nc(=O)o[nH]2)nc2nc(N3CCCC[C@@H]3C)n(C[C@H]3CC[C@H](C)CC3)c12)C1CCC1 (single isomer, unassigned) [Example 11.59]" value_reported=13.5
molecule="C[C@@H](Nc1nc(-c2noc(=O)[nH]2)nc2nc(N3CCCC3C[S+](C)[O-])n(C[C@H]3CC[C@H](C)CC3)c12)C1CCC1 (single isomer, unassigned) [Example 11.154]" value_reported=70.7
